Below: a set of entries, each annotated with reported IC50.
assayed_system: recombinant human SYK (GST-hSYK fusion protein) (Homo sapiens, UniProt P43405)
experiment_description: biochemical
recorded_conditions: rhSYK Activity (IC50), recombinant human GST-SYK 5 pM, ATP 25 μM, biotinylated substrate peptide 250 nM, HTRF, 10-dose titration

Example entries begin here.
Cc1cc(Nc2nccc(OCC3CCNCC3)n2)cc(-c2cnc(C3(O)CCC3)s2)c1 [Example 94A-24] ... 100 to 1000 nM
Cc1cc(Nc2nccc(C(F)(F)F)n2)cc(-c2cnc(CCC(C)(C)O)s2)c1 ... < 100 nM
Cc1cc(Nc2nccc(OCCC3CCOCC3)n2)cc(-c2cnc(C3(O)CCC3)s2)c1 [Example 94A-5] ... < 100 nM

What IC50 value was documented for this compound, Cc1cc(Nc2nccc(OCC3COCCO3)n2)cc(-c2cnc(C3(O)CCC3)s2)c1 (centres unmarked) [Example 94A-4] ? < 100 nM

What IC50 value was documented for this compound, Cc1cc(Nc2nccc(C(F)(F)F)n2)cc(-c2cnc(C(=O)N3CCC(O)C3)s2)c1 (centres unmarked) [Example 87B-17] ? < 100 nM

What IC50 value was documented for this compound, Cc1cc(Nc2nccc(OCc3ccccn3)n2)cc(-c2cnc(C3(O)CCC3)s2)c1 [Example 94A-3] ? < 100 nM

What IC50 value was documented for this compound, CC(=O)N1CCN(C(=O)c2ncc(-c3cc(C)cc(Nc4nccc(C(F)(F)F)n4)c3)s2)CC1 [Example 87B-7] ? 100 to 1000 nM

What IC50 value was documented for this compound, Cc1cc(Nc2nccc(C(F)(F)F)n2)cc(-c2cnc(C(N)=O)s2)c1 [Example 87A-2] ? 100 to 1000 nM

* * *

Below: a set of entries, each annotated with reported IC50.
assayed_system: recombinant human SYK (GST-hSYK fusion protein) (Homo sapiens, UniProt P43405)
experiment_description: biochemical
recorded_conditions: rhSYK Activity (IC50), recombinant human GST-SYK 5 pM, ATP 25 μM, biotinylated substrate peptide 250 nM, HTRF, 10-dose titration

Example entries begin here.
Cc1cc(Nc2nccc(C(F)(F)F)n2)cc(-c2cnc(C(=O)N(C)CC(O)CO)s2)c1 (stereo not drawn) [Example 87A-26] ... < 100 nM
Cc1cc(Nc2nccc(C(F)(F)F)n2)cc(-c2cnc(C(=O)NC(CO)(CO)CO)s2)c1 [Example 87A-34] ... < 100 nM

Here is the next item to consider.
Item: COC(=O)C1CCC(O)(c2ncc(-c3cc(C)cc(Nc4ncc(C(F)(F)F)c(OC)n4)c3)s2)CC1(C)C (stereo not drawn) [Example 100A-27] Test system: recombinant human SYK (GST-hSYK fusion protein) (Homo sapiens, UniProt P43405) Read-out: IC50 Value: ? 1000 to 10000 nM

* * *

assayed_system: recombinant human SYK (GST-hSYK fusion protein) (Homo sapiens)
experiment_description: biochemical
recorded_conditions: rhSYK Activity, Table 116A
pIC50: −log10 of the molar value.
endpoint_label: pIC50

Example entries begin here.
COC(=O)C1CCC(O)(c2ncc(-c3cc(C)cc(Nc4ncc(Cl)c(C)n4)c3)s2)CC1(C)C (stereo not shown) [116A-34] ... 6.00 to 7.00
Cc1cc(Nc2nccc(OC(C)C)n2)cc(-c2cnc(C3(O)CCC(C(=O)O)CC3)s2)c1 (stereo not shown) [116A-7] ... > 7.00
Cc1cc(Nc2nccc(OC(C)C)n2)cc(-c2cnc(C3(O)CCC(C(=O)O)C(C)C3)s2)c1 (stereo not shown) [116A-21] ... > 7.00
Cc1cc(Nc2nccc(C(C)C)n2)cc(-c2cnc([C@]3(O)CC[C@@H](C(=O)O)CC3)s2)c1 [116A-3] ... > 7.00
Cc1cc(Nc2nccc(C3CCC3)n2)cc(-c2cnc([C@@]3(O)CC[C@H](C(=O)O)C(C)(C)C3)s2)c1 [116A-31] ... > 7.00

What pIC50 value was documented for this molecule, Cc1cc(Nc2ncc(F)c(C)n2)cc(-c2cnc([C@]3(O)CC[C@@H](C(=O)O)CC3)s2)c1 [116A-2] ? > 7.00

What pIC50 value was documented for this molecule, Cc1cc(Nc2nccc(C(C)(C)C)n2)cc(-c2cnc(C3(O)CCC(C(=O)OC(C)(C)C)CC3)s2)c1 (stereo not shown) [116A-12] ? 6.00 to 7.00

What pIC50 value was documented for this molecule, COc1nc(Nc2cc(C)cc(-c3cnc(C4(O)CCC(C(=O)O)C(C)(C)C4)s3)c2)ncc1F (stereo not shown) [116A-28] ? > 7.00
